meta.source: paper PMC3928712

# system: 2009 pandemic H1N1 (pH1N1) PAN endonuclease (Influenza A virus)

smiles notation: O=c1[nH]cc(Br)cc1O
system: 2009 pandemic H1N1 (pH1N1) PAN endonuclease (Influenza A virus)
IC50 (µM): 16
